# tested_target: tyrosinase
# condition_info: mean ± SEM of three parallel measurements
pIC50: −log10 of the molar value.
Returns 1 if the recorded pIC50 is greater than or equal to 2, and 0 otherwise.

# example entries with known answers
{"molecular_string": "O=C1C(=Cc2ccc3ccccc3n2)SC(=NN2CCOCC2)N1c1ccccc1", "answer_label": 1}
{"molecular_string": "O=C1C(=Cc2ccsc2)SC(=NN2CCOCC2)N1c1ccccc1", "answer_label": 0}
{"molecular_string": "O=C1C(=Cc2ccc(Br)cc2)SC(=NN2CCOCC2)N1c1ccccc1", "answer_label": 0}
{"molecular_string": "COc1cc(C=C2SC(=NN3CCOCC3)N(c3ccccc3)C2=O)cc(OC)c1OC", "answer_label": 0}
{"molecular_string": "Cc1ccsc1C=C1SC(=NN2CCOCC2)N(c2ccccc2)C1=O", "answer_label": 1}

IN: Decide: pIC50 of O=C1C(=Cc2ccccc2)SC(=NN2CCOCC2)N1c1ccccc1 >= 2?
OUT: 0

IN: Decide: pIC50 of O=C1C(=Cc2ccc(N3CCOCC3)cc2)SC(=NN2CCOCC2)N1c1ccccc1 >= 2?
OUT: 1

IN: Decide: pIC50 of COc1ccc(C=C2SC(=NN3CCOCC3)N(c3ccccc3)C2=O)cc1OC >= 2?
OUT: 0

* * *

# tested_target: tyrosinase
# Format: biochemical
# condition_info: mean ± SEM of three parallel measurements
reported_property: IC50 (mM)
Give the number; mM is assumed, so skip it.

Sample answers from the record:
{"compound": "O=C1C(=Cc2cccnc2)SC(=NN2CCOCC2)N1c1ccccc1 [Compound 22]", "IC50 / mM": 9.13}
{"compound": "CN(C)c1ccc(C=C2SC(=NN3CCOCC3)N(c3ccccc3)C2=O)cc1 [Compound 10]", "IC50 / mM": 25}

tyrosinase assay, compound O=C1C(=Cc2ccc(N3CCCCC3)cc2)SC(=NN2CCOCC2)N1c1ccccc1 [Compound 13] , recorded IC50 = 26.2

* * *

# tested_target: butyrylcholinesterase (BChE) (Equus caballus)
# Construct: butyrylcholinesterase (BChE) from horse serum; from tissue; host or cells: horse serum
# experiment_summary: biochemical
# condition_info: mean ± SEM of three parallel measurements
Entries annotated with measured IC50
Give the number; µM is assumed, so skip it.

{"molecular_string": "Cn1cccc1C=C1SC(=NN2CCOCC2)N(c2ccccc2)C1=O", "IC50 / µM": 29.7}

Could you now consider this next molecule?
Memo: O=C1C(=Cc2ccc(Br)cc2)SC(=NN2CCOCC2)N1c1ccccc1 , reported IC50: 39.6

* * *

# tested_target: butyrylcholinesterase (BChE) (Equus caballus, UniProt P81908)
# Construct: butyrylcholinesterase (BChE) from horse serum
# Sequence (P81908 whole entry): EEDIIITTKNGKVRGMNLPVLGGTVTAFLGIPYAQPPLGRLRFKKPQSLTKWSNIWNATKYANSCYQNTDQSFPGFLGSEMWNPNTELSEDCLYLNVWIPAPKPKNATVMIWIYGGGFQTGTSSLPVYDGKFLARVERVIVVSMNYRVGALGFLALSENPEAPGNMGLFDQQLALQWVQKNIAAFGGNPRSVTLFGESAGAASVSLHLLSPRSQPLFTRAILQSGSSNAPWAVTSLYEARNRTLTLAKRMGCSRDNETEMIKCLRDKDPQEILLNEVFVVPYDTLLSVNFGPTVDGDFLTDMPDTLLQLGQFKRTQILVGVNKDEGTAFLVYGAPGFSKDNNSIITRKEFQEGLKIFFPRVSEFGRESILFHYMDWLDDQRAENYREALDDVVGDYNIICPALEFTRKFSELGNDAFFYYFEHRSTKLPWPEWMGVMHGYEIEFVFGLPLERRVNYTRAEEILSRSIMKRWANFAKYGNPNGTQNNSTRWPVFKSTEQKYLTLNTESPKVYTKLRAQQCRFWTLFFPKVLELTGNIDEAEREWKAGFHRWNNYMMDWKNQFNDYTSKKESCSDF
# experiment_summary: biochemical
# condition_info: mean ± SEM of three parallel measurements
reported_property: IC50 (µM)
Give the number; µM is assumed, so skip it.

Sample answers from the record:
{"molecular_string": "O=C1C(=Cc2ccncc2)SC(=NN2CCOCC2)N1c1ccccc1", "tested_target": "butyrylcholinesterase (BChE) (Equus caballus, UniProt P81908)", "IC50, µM": 25.4}
{"molecular_string": "O=C1C(=Cc2cccnc2)SC(=NN2CCOCC2)N1c1ccccc1", "tested_target": "butyrylcholinesterase (BChE) (Equus caballus, UniProt P81908)", "IC50, µM": 33}
{"molecular_string": "O=C1C(=Cc2ccc(N(CCCl)CCCl)cc2)SC(=NN2CCOCC2)N1c1ccccc1", "tested_target": "butyrylcholinesterase (BChE) (Equus caballus, UniProt P81908)", "IC50, µM": 32.8}
{"molecular_string": "O=C1C(=Cc2ccc[nH]2)SC(=NN2CCOCC2)N1c1ccccc1", "tested_target": "butyrylcholinesterase (BChE) (Equus caballus, UniProt P81908)", "IC50, µM": 32.9}
{"molecular_string": "O=C1C(=Cc2ccccc2)SC(=NN2CCOCC2)N1c1ccccc1", "tested_target": "butyrylcholinesterase (BChE) (Equus caballus, UniProt P81908)", "IC50, µM": 48.7}
{"molecular_string": "COc1cc(C=C2SC(=NN3CCOCC3)N(c3ccccc3)C2=O)cc(OC)c1OC", "tested_target": "butyrylcholinesterase (BChE) (Equus caballus, UniProt P81908)", "IC50, µM": 47.3}
{"molecular_string": "O=C1C(=Cc2c[nH]c3ccccc23)SC(=NN2CCOCC2)N1c1ccccc1", "tested_target": "butyrylcholinesterase (BChE) (Equus caballus, UniProt P81908)", "IC50, µM": 25.7}
{"molecular_string": "S=C(Nc1ccccc1)NN1CCOCC1", "tested_target": "butyrylcholinesterase (BChE) (Equus caballus, UniProt P81908)", "IC50, µM": 118}

Could you now consider this next compound?
Memo: O=C1C(=Cc2ccc3ccccc3n2)SC(=NN2CCOCC2)N1c1ccccc1 , reported IC50: 25.7
